# targetOrSystem: HIV-1LAI envelope gp120 (Human immunodeficiency virus type 1 group M subtype B, UniProt P03377)
# Type: binding
# conditionDescription: STRL33 18-mer scan; background subtracted; second of two count columns
For each record, write down the corresponding radioactive counts recorded in twenty minutes.
Just the number please, in counts, no unit attached.

GET /value?item= DLVFVCTLPFWAYAGIHE [STRL33 segment 77-94] &field=radioactive counts recorded in twenty minutes returns 1063.5

Entry TCITVDRFIVVVKATKAY — recorded radioactive counts recorded in twenty minutes = 346.5

Value of radioactive counts recorded in twenty minutes reported for the sequence SKTFSASHNVEATSMFQL [STRL33 segment 325-342] is 1239.5

Query YAGIHEWVFGQVMCKSLL [STRL33 segment 89-106] yields radioactive counts recorded in twenty minutes of 6245.5

For LPYLGVSHQWKSSEDNSK the sequence record lists radioactive counts recorded in twenty minutes as 122.5

radioactive counts recorded in twenty minutes recorded for this sequence, YTINFYTSMLILTCITVD , is 510.5

Please fill in: radioactive counts recorded in twenty minutes reported for QWKSSEDNSKTFSASHNV = 533.5

For MAEHDYHEDYGFSSFNDS [STRL33 segment 1-18] the sequence record lists radioactive counts recorded in twenty minutes as 1320.5

response.value for TVVLATQMTLGFFLPLLT [STRL33 segment 189-206] (field: radioactive counts recorded in twenty minutes) = 2389.5

// sample PVLYAFVSLKFRKNFWKL [STRL33 segment 285-302] , its radioactive counts recorded in twenty minutes was 2147.5

radioactive counts recorded in twenty minutes reading for SFHYTIMVTEAIAYLRAC [STRL33 segment 265-282] : 1033.5

====

# targetOrSystem: HIV-1LAI envelope gp120 (Human immunodeficiency virus type 1 group M subtype B)
# Format: binding
# conditionDescription: STRL33 18-mer scan; background subtracted; first of two count columns
Provide the reported radioactive counts recorded in twenty minutes of each item.
Number first, unit second: that is the form wanted.

FLVNLPLADLVFVCTLPF [STRL33 segment 69-86] has a reported radioactive counts recorded in twenty minutes of 70.5 counts

sequence GVSNQWKSSEDNSKTFSA [STRL33 segment 313-330] , radioactive counts recorded in twenty minutes observed: 208.5 counts

According to the records, this sequence HWEYYAMTSFHYTIMVTE [STRL33 segment 257-274] displays radioactive counts recorded in twenty minutes of 2040.5 counts

Lab note: measured radioactive counts recorded in twenty minutes of PFWAYAGIHEWVFGQVMC was 7262.5 counts

The recorded radioactive counts recorded in twenty minutes for TLLHAGGFQKHRSLKIIF is 1041.5 counts

Notebook: FNLDKLICGYHDEAISTV , radioactive counts recorded in twenty minutes read as 1072.5 counts

The measured radioactive counts recorded in twenty minutes associated with KLVKDIGCLPYLGVSHQW [STRL33 segment 301-318] reads −2.5 counts

For this sequence ( GYHDEAISTVVLATQMTL ), measured radioactive counts recorded in twenty minutes is 754.5 counts

Documented radioactive counts recorded in twenty minutes of LVSLPQIIYGNVFNLDKL : 91.5 counts

Documented radioactive counts recorded in twenty minutes of VCYSVIIKTLLHAGGFQK [STRL33 segment 209-226] : 1334.5 counts

// field: radioactive counts recorded in twenty minutes; key: IRSTHWEYYAMTSFHYTI ; value = 1571.5 counts

In plain terms, FYTSMLILTCITVDRFIV [STRL33 segment 113-130] has a documented radioactive counts recorded in twenty minutes of 744.5 counts

The recorded radioactive counts recorded in twenty minutes for MYLVVFVCGLVGNSLVLV [STRL33 segment 37-54] is 168.5 counts

Reported radioactive counts recorded in twenty minutes for KLQSLTDVFLVNLPLADL [STRL33 segment 61-78] was 412.5 counts

// recorded radioactive counts recorded in twenty minutes for KVTSLLIWVISLLVSLPQ : −39.5 counts

Measured radioactive counts recorded in twenty minutes, AFVSLKFRKNFWKLVKDI [STRL33 segment 289-306] : 808.5 counts

Data point: GLVGNSLVLVISIFYHKL [STRL33 segment 45-62] ; radioactive counts recorded in twenty minutes = 164.5 counts

Please fill in: radioactive counts recorded in twenty minutes reported for PQIIYGNVFNLDKLICGY = −18.5 counts

Short answer for SEDNSKTFSASHNVEATS [STRL33 segment 321-338] : radioactive counts recorded in twenty minutes was 524.5 counts

radioactive counts recorded in twenty minutes reading for LPYLGVSHQWKSSEDNSK : 111.5 counts

Form field radioactive counts recorded in twenty minutes, entry TVVLATQMTLGFFLPLLT [STRL33 segment 189-206] : 2327.5 counts

Record VCTLPFWAYAGIHEWVFG [STRL33 segment 81-98] , field radioactive counts recorded in twenty minutes: 1819.5 counts

# radioactive counts recorded in twenty minutes of FGQVMCKSLLGIYTINFY = 1257.5 counts

The reported radioactive counts recorded in twenty minutes of the sequence MPFNLMKFIRSTHWEYYA [STRL33 segment 245-262] was 2171.5 counts

Lab note: measured radioactive counts recorded in twenty minutes of DSSQEEHQAFLQFSKVFL [STRL33 segment 17-34] was 869.5 counts

// radioactive counts recorded in twenty minutes value for QWKSSEDNSKTFSASHNV : 464.5 counts

Entry LLIWVISLLVSLPQIIYG [STRL33 segment 153-170] ; radioactive counts recorded in twenty minutes = 42.5 counts

====

# targetOrSystem: HIV-1LAI envelope gp120 (Human immunodeficiency virus type 1 group M subtype B, UniProt P03377)
# Format: binding
# conditionDescription: CXCR4 (1-18) alanine variants; mean of two syntheses and binding experiments ± average deviation; wild-type = 100%
So I've got a bunch of sequences here, and I need their Relative % of Control values.
Return type: number; implicit unit %.

Record MEGISAYTSDNYTEEMGS , field Relative % of Control: 2

Looking up AEGISIYTSDNYTEEMGS [CXCR4 (1-18) variant M1A] , I see its Relative % of Control listed as 118

GET /value?item= MEAISIYTSDNYTEEMGS &field=Relative % of Control returns 101

Relative % of Control measured on MEGISIYTSDAYTEEMGS = 38

The sequence listed as MEGISIATSDNYTEEMGS has a reported Relative % of Control of 7

Documented Relative % of Control of MEGISIYTSDNYTEEAGS : 88

The reported value for MEGISIYTSDNYAEEMGS in terms of Relative % of Control is 70

Lab note: MEGISIYTSDNYTEEMGA gave Relative % of Control of 79

====

# targetOrSystem: HIV-1LAI envelope gp120 (Human immunodeficiency virus type 1 group M subtype B, UniProt P03377)
# Assay type: binding
# conditionDescription: STRL33 amino terminus; 9-mer starting at the first residue of the printed sequence; background subtracted
propertyName: Binding Results For Window Length (counts bound-background), 9 (counts)
The reply should be a number in counts, with the unit left off.

Binding Results For Window Length (counts bound-background), 9 recorded for this sequence, SSQEEEQAFLQFSKV , is 287

Please fill in: Binding Results For Window Length (counts bound-background), 9 reported for EHQAFLQFS = 7505

Lab note: measured Binding Results For Window Length (counts bound-background), 9 of EHDYHEDYGFSSFNDSSQ was 509

Reported Binding Results For Window Length (counts bound-background), 9 of QEEHQAFLQFSK : 1109

Just so you know, measured Binding Results For Window Length (counts bound-background), 9 for EDYGFSSFNDSSQEEHQA came out at 953

Field Binding Results For Window Length (counts bound-background), 9 (entry DSSQEEHQAFLQFSK ) reads 147

Field Binding Results For Window Length (counts bound-background), 9 (entry MAEHDYHEDYGFSSFNDS [STRL33 segment 1-18] ) reads 160

For this sequence ( YGFSSFNDSSQEEHQAFL ), measured Binding Results For Window Length (counts bound-background), 9 is 345

Per the records, this sequence ( HQAFLQFSK ) has Binding Results For Window Length (counts bound-background), 9 equal to 2761

Summary for this sequence, DYGFSSFNDSSQEEHQAF [STRL33 segment 9-26] : Binding Results For Window Length (counts bound-background), 9 is 701

Just so you know, measured Binding Results For Window Length (counts bound-background), 9 for EEHQAFLQFSKV came out at 6060

Entry SQEEHQAFLQFS — recorded Binding Results For Window Length (counts bound-background), 9 = 647

Looking up FSSFNDSSQEEHQAFLQF , I found its Binding Results For Window Length (counts bound-background), 9 recorded as 249

Lab note: measured Binding Results For Window Length (counts bound-background), 9 of SSFNDSSQEEHQAFLQFS [STRL33 segment 13-30] was 243

The recorded Binding Results For Window Length (counts bound-background), 9 for FNDSSQEEEQAFLQFSKV is 246

Note to self: Binding Results For Window Length (counts bound-background), 9 recorded for SFWDSSQEEEQAFLQFSK was 304
